- SYSTEM NAME: Cin5 (UniProt P40917)
- Sequence: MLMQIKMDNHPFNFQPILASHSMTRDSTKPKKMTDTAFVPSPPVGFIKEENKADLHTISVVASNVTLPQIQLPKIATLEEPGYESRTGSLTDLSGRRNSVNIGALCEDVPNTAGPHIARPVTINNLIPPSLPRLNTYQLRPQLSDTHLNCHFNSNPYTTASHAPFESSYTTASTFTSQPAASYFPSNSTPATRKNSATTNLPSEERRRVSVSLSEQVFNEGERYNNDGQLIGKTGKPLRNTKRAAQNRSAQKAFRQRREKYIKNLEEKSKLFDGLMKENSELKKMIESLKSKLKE
- EXPERIMENT NOTES: PBM E-score (8-mer binding enrichment) (E-score (-0.5 to 0.5)); higher = stronger / more preferred TF binding
- CONDITION LABEL: protein concentration: 100 nM; construct: GST-full length
In all, about 33,000 sequences were measured (“E-score (-0.5 to 0.5)”: median about -0.0059, highest 2% from about 0.26 on). The sample holds the highest values, similar sequences and a random draw of the others, so the mix is not that of the screen.
Threshold rule: PBM E-score greater than or equal to 0.04 is t; below that, f.

{"SEQUENCE RECORD": "CTGTCATA", "LABEL VALUE": "t"}
{"SEQUENCE RECORD": "AATTATCT", "LABEL VALUE": "t"}
{"SEQUENCE RECORD": "CGGTACTC", "LABEL VALUE": "f"}
{"SEQUENCE RECORD": "AATTATCC", "LABEL VALUE": "t"}
{"SEQUENCE RECORD": "GCCGCTCC", "LABEL VALUE": "f"}
{"SEQUENCE RECORD": "AATTATGG", "LABEL VALUE": "t"}
{"SEQUENCE RECORD": "AATTATCA", "LABEL VALUE": "t"}
{"SEQUENCE RECORD": "CGGTTCTC", "LABEL VALUE": "f"}
{"SEQUENCE RECORD": "ATAGGCAA", "LABEL VALUE": "t"}
{"SEQUENCE RECORD": "ACTGCAAC", "LABEL VALUE": "f"}
{"SEQUENCE RECORD": "ATGTCATA", "LABEL VALUE": "t"}
{"SEQUENCE RECORD": "AAAATCGC", "LABEL VALUE": "t"}
{"SEQUENCE RECORD": "ACCTAGAC", "LABEL VALUE": "f"}
{"SEQUENCE RECORD": "CAGCATGC", "LABEL VALUE": "f"}
{"SEQUENCE RECORD": "ATCTTTAA", "LABEL VALUE": "f"}
{"SEQUENCE RECORD": "AAGTCAAC", "LABEL VALUE": "t"}

Source of measurements: the supplement of paper PMC3334620
